Could you please report measured pIC50 for the items listed next?
// returns pIC50 (minus log10 of molar concentration), number only

Per the reported human sEH (Homo sapiens (Human), UniProt P34913) data, C/C(N)=N\C(=N\S(=O)(=O)c1ccc(OC(F)(F)F)cc1)NC12CC3CC(CC(C3)C1)C2 has pIC50 of 8.00

Per the reported human sEH (Homo sapiens (Human), UniProt P34913) data, CS/C(N)=N/C(=NS(=O)(=O)c1ccc(OC(F)(F)F)cc1)NC12CC3CC(CC(C3)C1)C2 has pIC50 of 8.99

Per the reported human sEH (Homo sapiens (Human), UniProt P34913) data, O=C(NC12CC3CC(CC(C3)C1)C2)NS(=O)(=O)c1ccccc1 has pIC50 of 6.98

Per the reported human sEH (Homo sapiens (Human), UniProt P34913) data, O=C(NC12CC3CC(CC(C3)C1)C2)NS(=O)(=O)c1ccc2ccccc2c1 has pIC50 of 8.92

Per the reported human sEH (Homo sapiens (Human), UniProt P34913) data, O=S(=O)(NC(=S)NC12CC3CC(CC(C3)C1)C2)c1ccccc1 [Compound 11c] has pIC50 of 6.88

Per the reported human sEH (Homo sapiens (Human), UniProt P34913) data, O=S(=O)(NC(=S)NC12CC3CC(CC(C3)C1)C2)c1ccc(OC(F)(F)F)cc1 [Compound 11d] has pIC50 of 8.33

Per the reported human sEH (Homo sapiens (Human), UniProt P34913) data, NN/C(=N/S(=O)(=O)c1ccc(OC(F)(F)F)cc1)NC12CC3CC(CC(C3)C1)C2 [Compound 13i] has pIC50 of 6.81

Per the reported human sEH (Homo sapiens (Human), UniProt P34913) data, O=C(NC12CC3CC(CC(C3)C1)C2)NS(=O)(=O)c1ccc(OC(F)(F)F)cc1 has pIC50 of 8.77

Per the reported human sEH (Homo sapiens (Human), UniProt P34913) data, C[Se]/C(N)=N/C(=NS(=O)(=O)c1ccc(OC(F)(F)F)cc1)NC12CC3CC(CC(C3)C1)C2 has pIC50 of 8.42
